# System: GBS NEM316 WT strain
# Format: cell-based, Streptococcus agalactiae
# Measurement context: Todd-Hewitt broth with 100 mM HEPES, 2×10^6 CFU, 96-well polypropylene microplate, overnight 37°C, OD600 nm; average of triplicate measurements
Where a SMILES comes first, the peptide text is derived from it. Bridges are numbered along the chain shown (N, C = ends). [ ]: non-standard residue; d: D form. The star is where a group is joined. X1 = CC[C@H](C)CCCCC(=O)*; Dab = NCC[C@H](N)C(=O)O
Value kind: MIC90, WT (µM)
Could you give me the number in µM? Just the number is fine.

Here is how some compounds turned out for MIC90, WT.
{"Compound": "CC(C)C[C@H](NC(=O)[C@H](CCCCN)NC(=O)[C@H](CCCCN)NC(=O)[C@H](CCCCN)NC(=O)[C@H](CC(C)C)NC(=O)[C@H](CCCCN)NC(=O)[C@H](CCCCN)NC(=O)[C@H](CC(C)C)NC(=O)[C@H](CC(C)C)NC(=O)[C@H](CCCCN)NC(=O)[C@H](CCCCN)NC(=O)[C@H](CC(C)C)NC(=O)[C@H](CCCCN)NC(=O)[C@H](CCCCN)NC(=O)[C@@H](N)CC(C)C)C(N)=O [K9L6] (H-LKKLKKLLKKLKKKL-NH2)", "Target or system": "GBS NEM316 WT strain", "MIC90, WT [µM]": 25}
{"Compound": "CC[C@H](C)CCCCC(=O)N[C@@H](CCN)C(=O)N[C@H](C(=O)N[C@@H](CCN)C(=O)N[C@H]1CCNC(=O)[C@H]([C@@H](C)O)NC(=O)[C@H](CCN)NC(=O)[C@H](CCN)NC(=O)[C@H](CC(C)C)NC(=O)[C@@H](Cc2ccccc2)NC(=O)[C@H](CCN)NC1=O)[C@@H](C)O [Polymyxin B] (X1-[Dab]T[Dab][Dab][Dab][dF]L[Dab][Dab]T; lactam 4-C (inferred); N-terminus assumed)", "Target or system": "GBS NEM316 WT strain", "MIC90, WT [µM]": 92.4}
{"Compound": "CC(C)C[C@H](NC(=O)[C@H](CC(C)C)NC(=O)[C@H](CCCCN)NC(=O)[C@H](CC(C)C)NC(=O)[C@H](CC(C)C)NC(=O)[C@H](CC(C)C)NC(=O)[C@H](CCCCN)NC(=O)[C@H](CC(C)C)NC(=O)[C@H](CC(C)C)NC(=O)[C@H](CCCCN)NC(=O)[C@@H](N)CCCCN)C(=O)N[C@@H](CCCCN)C(N)=O [K5L7] (H-KKLLKLLLKLLK-NH2)", "Target or system": "GBS NEM316 WT strain", "MIC90, WT [µM]": 25}
{"Compound": "CC(C)C[C@H](NC(=O)[C@H](CC(C)C)NC(=O)[C@@H](CCCCN)NC(=O)[C@H](CC(C)C)NC(=O)[C@H](CC(C)C)NC(=O)[C@H](CCCCN)NC(=O)[C@@H](CCCCN)NC(=O)[C@@H](CC(C)C)NC(=O)[C@H](CC(C)C)NC(=O)[C@@H](CCCCN)NC(=O)[C@H](CCCCN)NC(=O)[C@H](CC(C)C)NC(=O)[C@@H](CC(C)C)NC(=O)[C@H](CCCCN)NC(=O)[C@@H](N)CC(C)C)C(N)=O [5D-K6L9] (H-LK[dL]LK[dK]L[dL][dK]KLL[dK]LL-NH2; N-terminus assumed)", "Target or system": "GBS NEM316 WT strain", "MIC90, WT [µM]": 4.4}

Let's switch to this compound now.
Input line: I have this compound here, CC(C)C[C@H](NC(=O)[C@H](CC(C)C)NC(=O)[C@H](CCCCN)NC(=O)[C@H](CC(C)C)NC(=O)[C@H](CC(C)C)NC(=O)[C@H](CCCCN)NC(=O)[C@H](CCCCN)NC(=O)[C@H](CC(C)C)NC(=O)[C@H](CC(C)C)NC(=O)[C@H](CCCCN)NC(=O)[C@H](CCCCN)NC(=O)[C@H](CC(C)C)NC(=O)[C@H](CC(C)C)NC(=O)[C@H](CCCCN)NC(=O)[C@@H](N)CC(C)C)C(N)=O [K6L9] (H-LKLLKKLLKKLLKLL-NH2; N-terminus assumed) , and I need its recorded MIC90, WT.
Output line: 35.5

// data source = paper PMC3435245
